These data points were gathered from PubChem BioAssay (NCI).

system: SK-MEL-5 melanoma; test: NCI-60 one-dose screen, 48 h (100 = growth as untreated, 0 = no growth, -100 = all killed); conditions: 10 µM unless noted
The panel holds about 83,000 compounds, 20% with a hit somewhere; the sample as a whole holds those more often. The source made the active and inactive calls. Rule for the calls: active = growth percent below 10; inactive = the rest.
RECORDED ENDPOINT: growth

Sample records with growth:
COMPOUND	TARGET UNDER TEST	OBS VALUE
Cc1ccc(S(=O)(=O)N2CCc3ccc(O)c4c3C2CCc2ccccc2-4)cc1 (stereo not given)	SK-MEL-5 melanoma	105% (inactive)
O=C(O)C[C@H](O)C[C@H](O)/C=C/c1c(C2CC2)nc2ccccc2c1-c1ccc(F)cc1	SK-MEL-5 melanoma	67.6% (inactive)
C[C@]1(CO)C[C@@H](O)C[C@]2(C)[C@@H]1CC[C@@]13C[C@@H]4[C@@H](C[C@H]12)[C@]4(C)C3	SK-MEL-5 melanoma	99% (inactive)

Enquiry: For Fc1c[c-]c(-c2ccccn2)c(F)c1.Fc1c[c-]c(-c2ccccn2)c(F)c1.[Cl][Pt+].[Cl][Pt+].c1ccc([PH+](C[PH+](c2ccccc2)c2ccccc2)c2ccccc2)cc1 , write its growth.
Return: -70.8% (active)

Enquiry: Please give measured growth of the following entry: COc1cc2cc(Oc3ccc(NC(=O)Nc4cccc(C(F)(F)F)c4)cc3)c(C)nc2cc1OCCN1CCCCC1
Return: -94.1% (active)

Enquiry: Return growth for the following compound: CCN(CC)CCCNc1ccc(C)c2sc3ccccc3c(=O)c12
Return: -99.4% (active)

Enquiry: Specify reported growth for the compound shown: Oc1ccccc1/C=N/Nc1nc2ccccc2s1
Return: 48.8% (inactive)

Enquiry: Supply reported growth belonging to this compound: O=C(Nc1nc2ccccc2[nH]1)C(=O)Nc1nc2ccccc2[nH]1
Return: 99.2% (inactive)

Enquiry: Return the recorded growth value; entry: CCN(C(=O)c1ccc2c3c(cccc13)C=C2)c1ccccc1
Return: 93.9% (inactive)

Enquiry: Fill in growth for record Cc1cc[n+](CCc2ccccc2)cc1
Return: 92.7% (inactive)

Enquiry: Find the measured growth of NC(=S)N/N=C1\c2ccccc2-c2c(F)c(F)c(F)c(F)c21 and report it.
Return: 102% (inactive)

Enquiry: Give recorded growth. COc1ccc(/C=N/NC(=O)c2cnn3c2NC(c2ccccc2)C3)cc1OC1CCCC1 (stereo not given)
Return: 78.8% (inactive)

Enquiry: Given O=c1c2c(=NCCN3CCCC3)cc3c(=O)n(CCCN4CCOCC4)c(=O)c4c(-c5ccc(CN6CCCC6)cc5)cc(c(O)n1CCCN1CCOCC1)c2c4-3 , respond with its growth.
Return: -44.6% (active)

Enquiry: Return the recorded growth value; entry: COc1ccc(-c2nc3sc(C)nn3c2-c2nc3cc(C)c(C)cc3[nH]2)cc1
Return: 93% (inactive)

Enquiry: Provide growth value for the following compound: COc1ccc(C2SC(C)C(=O)N2CCc2cccs2)cc1OC (stereo not given)
Return: 49.4% (inactive)

Enquiry: Return growth for the following compound: CN1CCc2cccc3c2C1Cc1ccc(O)c(O)c1-3 (stereo not given)
Return: 97.5% (inactive)

Enquiry: Assign growth to the following record: COc1cccc(C2C3=C(COC3=O)N(CCO)c3cc4c(cc32)OCO4)c1 (stereo not given)
Return: 30.8% (inactive)

Enquiry: State, in one line, measured growth of CCC12CCC3c4ccc(O)cc4CCC3C1CC(O)C2O (stereo not given)
Return: 63.4% (inactive)

Enquiry: Determine from records and report growth for CC1SC(c2ccc(Cl)cc2)N(CCc2cccs2)C1=O (stereo not given)
Return: -99.2% (active)
